- subject-of-test: beta-catenin/TCF4 engagement (Homo sapiens)
- Construct: expressed in transfected cells; host or cells: HEK293
- run-description: Nano-BRET target engagement assay (B-cat-Halo & TCF4-Luc in HEK293 cells)
- Assay type: cell-based
- measurement-context: read-out: NanoBRET Abs IC50
assay-endpoint: pIC50
pIC50 field: float, defined as -log10 of concentration (mol/L).

Q: Would you kindly share the measured pIC50 for CC(=O)N1CCC[C@]12CC=CCCCC1(CCCC=CCCCOC(=O)N3CC[C@@](C(=O)N[C@@H](Cc4ccsc4)C(=O)N[C@@H](Cc4csc5ccccc45)C(=O)N[C@@H](CCC(N)=O)C(=O)N[C@@H](CCCCNC(=O)c4ccc(CN(C)C)cc4)C(N)=O)(C3)NC(=O)[C@H](CC(N)=O)NC(=O)[C@H](Cc3ccccc3)NC(=O)[C@H](C)NC(=O)[C@H](C)NC(=O)[C@H](CC(=O)O)NC(=O)[C@H](CC(=O)O)NC1=O)NC(=O)[C@H](CC(C)(C)C)NC(=O)[C@H](CC(=O)O)NC2=O (stereo partly shown) ?
Ans: 4.53

----------
- subject-of-test: full-length B-Catenin (Uniprot ID P35222) (Homo sapiens, UniProt P35222)
- Construct: 65 nM full-length B-Catenin (Uniprot ID P35222)
- Sequence (P35222 1-781): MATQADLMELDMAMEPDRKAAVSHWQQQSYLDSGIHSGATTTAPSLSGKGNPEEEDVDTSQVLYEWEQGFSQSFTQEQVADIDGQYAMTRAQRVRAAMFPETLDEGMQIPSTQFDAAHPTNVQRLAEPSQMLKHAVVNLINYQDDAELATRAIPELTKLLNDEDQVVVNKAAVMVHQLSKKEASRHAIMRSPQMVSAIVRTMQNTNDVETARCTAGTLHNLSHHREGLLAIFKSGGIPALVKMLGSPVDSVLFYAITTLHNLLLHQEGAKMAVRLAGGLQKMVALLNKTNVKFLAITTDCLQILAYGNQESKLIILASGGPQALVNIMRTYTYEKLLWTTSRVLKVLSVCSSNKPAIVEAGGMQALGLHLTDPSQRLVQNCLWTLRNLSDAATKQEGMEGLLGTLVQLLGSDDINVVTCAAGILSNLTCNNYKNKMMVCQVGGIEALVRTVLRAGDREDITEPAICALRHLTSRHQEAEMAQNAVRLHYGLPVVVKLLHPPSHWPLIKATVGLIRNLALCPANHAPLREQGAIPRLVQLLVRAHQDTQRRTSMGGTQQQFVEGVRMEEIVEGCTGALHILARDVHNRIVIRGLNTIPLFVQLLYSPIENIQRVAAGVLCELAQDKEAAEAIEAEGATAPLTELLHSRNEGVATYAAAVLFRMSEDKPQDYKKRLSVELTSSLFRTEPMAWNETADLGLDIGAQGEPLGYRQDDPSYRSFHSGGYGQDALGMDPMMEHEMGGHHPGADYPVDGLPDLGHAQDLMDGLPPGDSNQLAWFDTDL
- run-description: Alphascreen binding assay (beta-catenin / biotin-TCF4 10-53)
Assign EC50 to each entry below.
Answer format: numeric, µM implied, no suffix.

Q: Would you kindly share the measured EC50 for CC(=O)N1CCC[C@]12CC=CCCCC1(CCCC=CCCCCCC[C@@](C)(C(=O)N[C@@H](Cc3ccc(Cl)cc3)C(=O)N[C@@H](Cc3c[nH]c4ccccc34)C(=O)N[C@@H](CCC(N)=O)C(N)=O)NC(=O)[C@H](C(C)C)NC(=O)[C@H](Cc3ccccc3)NC(=O)[C@H](C)NC(=O)[C@H](C)NC(=O)[C@H](CC(=O)O)NC(=O)[C@H](CC(=O)O)NC1=O)NC(=O)[C@H](C)NC(=O)[C@H](CC(=O)O)NC2=O (stereo partly drawn) [I-313] ?
Ans: 3.6

Q: Would you kindly share the measured EC50 for CC(=O)NC(C)(C)C(=O)N[C@@H](CC(=O)O)C(=O)N[C@@H](C)C(=O)N[C@]1(C)CCCCCCC=CCOC(=O)N2CC[C@@](C(=O)N[C@@H](Cc3ccccc3)C(=O)N[C@@H](Cc3c[nH]c4ccccc34)C(=O)NC(C)(C)C(N)=O)(C2)NC(=O)[C@H](C(C)C)NC(=O)[C@H](Cc2ccccc2)NC(=O)[C@H](C)NC(=O)[C@H](C)NC(=O)[C@H](CCC(=O)O)NC(=O)[C@H](CC(=O)O)NC1=O [I-160] ?
Ans: 3.24

Q: Would you kindly share the measured EC50 for CC(=O)N1CCC[C@]12CC=CCCCC1(CCCC=CCCCCCC[C@@](C)(C(=O)N[C@@H](Cc3ccccc3)C(=O)N[C@@H](Cc3c[nH]c4ccccc34)C(=O)N[C@@H](CCC(N)=O)C(N)=O)NC(=O)[C@H](C(C)C)NC(=O)[C@H](Cc3ccccc3)NC(=O)[C@H](C)NC(=O)[C@H](C)NC(=O)[C@H](Cc3csc4ccccc34)NC(=O)[C@H](CC(=O)O)NC1=O)NC(=O)[C@H](C)NC(=O)[C@H](CC(=O)O)NC2=O (stereo partly drawn) [I-231] ?
Ans: 6.53

----------
Assign IC50 to each entry below.
- subject-of-test: beta-catenin/TCF4 engagement (Homo sapiens)
- Construct: expressed in transfected cells; host or cells: HEK293
- run-description: Nano-BRET target engagement assay (B-cat-Halo & TCF4-Luc in HEK293 cells)
- Format: cell-based
- measurement-context: read-out: NanoBRET Abs IC50
Answer format: numeric, µM implied, no suffix.

Q: Entry CC(=O)N1CCC[C@]12CC=CCCCC1(CCCC=CCCCOC(=O)N3CC[C@@](C(=O)N[C@@H](Cc4ccsc4)C(=O)N[C@@H](Cc4csc5ccccc45)C(=O)N[C@@H](CC(N)=O)C(=O)N[C@@H](C)C(N)=O)(C3)NC(=O)[C@H](CC(N)=O)NC(=O)[C@H](Cc3ccccc3)NC(=O)[C@H](C)NC(=O)[C@H](C)NC(=O)[C@H](CC(=O)O)NC(=O)[C@H](CC(=O)O)NC1=O)NC(=O)[C@H](CC(C)(C)C)NC(=O)[C@H](CC(=O)O)NC2=O (some centres unmarked) , system beta-catenin/TCF4 engagement (Homo sapiens): what IC50 was measured?
Ans: 9.1

Q: Entry CC(=O)N1CCC[C@]12CC=CCCCC1(CCCC=CCCCOC(=O)N3CC[C@@](C(=O)N[C@@H](Cc4ccsc4)C(=O)N[C@@H](Cc4csc5ccccc45)C(=O)N[C@H](CC(N)=O)C(N)=O)(C3)NC(=O)[C@H](CC(N)=O)NC(=O)[C@H](Cc3ccccc3)NC(=O)[C@H](C)NC(=O)[C@H](C)NC(=O)[C@H](CC(=O)O)NC(=O)[C@H](CC(=O)O)NC1=O)NC(=O)[C@H](CC(C)(C)C)NC(=O)[C@H](CC(=O)O)NC2=O (some centres unmarked) , system beta-catenin/TCF4 engagement (Homo sapiens): what IC50 was measured?
Ans: 15

----------
- run-description: Solubility in PBS
- Assay type: physicochemical
Assign Solubility to each entry below.

Q: Would you kindly share the measured Solubility for CC(=O)N1CCC[C@]12CC=CCCCC1(CCCC=CCCCCCC[C@@](C)(C(=O)N[C@@H](Cc3ccsc3)C(=O)N[C@@H](Cc3csc4ccccc34)C(N)=O)NC(=O)[C@H](CC(N)=O)NC(=O)[C@H](Cc3ccccc3)NC(=O)[C@H](C)NC(=O)[C@H](C)NC(=O)[C@H](CCC(=O)O)NC(=O)[C@H](CC(=O)O)NC1=O)NC(=O)[C@H](CC(C)C)NC(=O)[C@H](CC(=O)O)NC2=O (stereo partly drawn) [I-717] ?
Ans: 35 µM

Q: Would you kindly share the measured Solubility for CC[C@H](C)[C@@H]1NC(=O)[C@H](CC(=O)O)NC(=O)[C@]2(CC=CCCCC3(CCCC=CCCCCCC[C@@](C)(C(=O)N[C@@H](Cc4ccccc4)C(=O)N[C@@H](Cc4csc5ccccc45)C(=O)N[C@@H](CCC(N)=O)C(N)=O)NC(=O)[C@H](CC(N)=O)NC(=O)[C@H](Cc4ccccc4)NC(=O)[C@H](C)NC(=O)[C@H](C)NC(=O)[C@H](CN(CC(=O)O)CC(F)(F)F)NC(=O)[C@H](CC(=O)O)NC3=O)NC1=O)CCCN2C(C)=O (stereo partly drawn) [I-699] ?
Ans: 50 µM

Q: Would you kindly share the measured Solubility for CC(=O)N1CCC[C@]12CC=CCCCC1(CCCC=CCCCOC(=O)N3CC[C@@](C(=O)N[C@@H](Cc4ccccc4C(F)(F)F)C(=O)N[C@@H](Cc4csc5ccccc45)C(=O)N[C@H](CO)[C@@H](C)O)(C3)NC(=O)[C@H](CC(C)C)NC(=O)[C@H](Cc3ccccc3)NC(=O)[C@H](C)NC(=O)[C@H](C)NC(=O)[C@H](Cc3cccc(C(=O)O)c3)NC(=O)[C@H](CC(=O)O)NC1=O)NC(=O)[C@H](CC(C)(C)C)NC(=O)[C@H](CC(=O)O)NC2=O (stereo partly drawn) [I-1337] ?
Ans: 10 µM

Q: Would you kindly share the measured Solubility for CC[C@H](C)[C@@H]1NC(=O)[C@H](CC(=O)O)NC(=O)[C@]2(CC=CCCCC3(CCCC=CCCCCCC[C@@](C)(C(=O)N[C@@H](Cc4ccccc4)C(=O)N[C@@H](Cc4csc5ccccc45)C(=O)N[C@@H](CCC(N)=O)C(N)=O)NC(=O)[C@H](CCC(N)=O)NC(=O)[C@H](Cc4ccccc4)NC(=O)[C@H](Cc4c[nH]c5ccccc45)NC(=O)[C@H](C)NC(=O)[C@H](CCC(=O)O)NC(=O)[C@H](CC(=O)O)NC3=O)NC1=O)CCCN2C(C)=O (stereo partly drawn) [I-664] ?
Ans: 45 µM

Q: Would you kindly share the measured Solubility for CCN(CC(=O)O)C[C@@H]1NC(=O)[C@H](CC(=O)O)NC(=O)C2(CCCC=CCCCOC(=O)N3CC[C@@](C(=O)N[C@@H](Cc4ccsc4)C(=O)N[C@@H](Cc4csc5ccccc45)C(=O)N[C@@H](CO)C(N)=O)(C3)NC(=O)[C@H](CO)NC(=O)[C@H](Cc3ccccc3)NC(=O)[C@H](C)NC(=O)[C@H](C)NC1=O)CCCC=CC[C@]1(CCCN1C(C)=O)C(=O)N[C@@H](CC(=O)O)C(=O)N[C@@H](CC(C)(C)C)C(=O)N2 (stereo partly drawn) [I-974] ?
Ans: 10 µM

Q: Would you kindly share the measured Solubility for CC(=O)N1CCC[C@]12CC=CCCCC1(CCCC=CCCCOC(=O)N3CC[C@@](C(=O)N[C@@H](Cc4ccccc4Cl)C(=O)N[C@@H](Cc4csc5ccccc45)C(=O)N[C@@H](CC(C)C)C(N)=O)(C3)NC(=O)[C@H](CCCCNC(C)C)NC(=O)[C@H](Cc3ccccc3)NC(=O)[C@H](C)NC(=O)[C@H](C)NC(=O)[C@H](CCC(=O)O)NC(=O)[C@H](CC(=O)O)NC1=O)NC(=O)[C@H](CC(C)(C)C)NC(=O)[C@H](CC(=O)O)NC2=O (stereo partly drawn) [I-1283] ?
Ans: 10 µM

Q: Would you kindly share the measured Solubility for CC(=O)N1CCC[C@]12CC=CCCCC1(CCCC=CCCCOC(=O)N3CC[C@@](C(=O)N[C@@H](Cc4ccccc4Cl)C(=O)N[C@@H](Cc4csc5ccccc45)C(=O)N[C@@H](C(N)=O)[C@H](C)O)(C3)NC(=O)[C@H](Cc3ccccc3)NC(=O)[C@H](Cc3ccccc3)NC(=O)[C@H](C)NC(=O)[C@H](C)NC(=O)[C@H](CCC(=O)O)NC(=O)[C@H](CC(=O)O)NC1=O)NC(=O)[C@H](CC(C)(C)C)NC(=O)[C@H](CC(=O)O)NC2=O (stereo partly drawn) [I-1038] ?
Ans: 10 µM

Q: Would you kindly share the measured Solubility for CC(=O)N1CCC[C@]12CC=CCCCC1(CCCC=CCCCCCC[C@@](C)(C(=O)N[C@@H](Cc3ccsc3)C(=O)N[C@@H](Cc3csc4ccccc34)C(=O)N[C@@H](CCC(N)=O)C(=O)N[C@H](C)C(=O)N[C@H](C)C(=O)N[C@H](C)C(N)=O)NC(=O)[C@H](CC(N)=O)NC(=O)[C@H](Cc3ccccc3)NC(=O)[C@H](C)NC(=O)[C@H](C)NC(=O)[C@H](CC(=O)O)NC(=O)[C@H](CC(=O)O)NC1=O)NC(=O)[C@H](CC(C)(C)C)NC(=O)[C@H](CC(=O)O)NC2=O (stereo partly drawn) [I-876] ?
Ans: 50 µM

Q: Would you kindly share the measured Solubility for CC(=O)N1CCC[C@]12CC=CCCCC1(CCCC=CCCCCCC[C@@](C)(C(=O)N[C@@H](Cc3ccc(C(N)=O)cc3)C(=O)N[C@@H](Cc3csc4ccccc34)C(=O)N[C@@H](CCC(N)=O)C(N)=O)NC(=O)[C@H](C(C)C)NC(=O)[C@H](Cc3ccccc3)NC(=O)[C@H](C)NC(=O)[C@H](C)NC(=O)[C@H](CC(=O)O)NC(=O)[C@H](CC(=O)O)NC1=O)NC(=O)[C@H](C)NC(=O)[C@H](CC(=O)O)NC2=O (stereo partly drawn) [I-338] ?
Ans: 47 µM
